Test: clinical
Conditions: human, in vivo, iv, t1/2
property label: half-life (h)

{"molecule": "NS(=O)(=O)c1cc(C(=O)O)cc(N2CCCC2)c1Oc1ccccc1 [PIRETANIDE]", "value measured": 1.3}
{"molecule": "C[C@@H](O)[C@H]1C(=O)N2C(C(=O)O)=C(SCCOC(N)=O)S[C@H]12", "value measured": 0.8}
{"molecule": "NC(=O)CN1CC(O)CC1=O (centres undefined)", "value measured": 7.5}
{"molecule": "C=CCN1CCCC1CNC(=O)c1cc2[nH]nnc2cc1OC (centres undefined) [ALIZAPRIDE]", "value measured": 2.8}
{"molecule": "O=NN(CCCl)C(=O)NCCCl", "value measured": 0.37}
{"molecule": "CC1(C)S[C@@H]2[C@H](NC(=O)COc3ccccc3)C(=O)N2[C@H]1C(=O)O", "value measured": 0.84}
{"molecule": "CC[C@@H](CO)NCCN[C@@H](CC)CO", "value measured": 3.1}
{"molecule": "CCOc1cc(CC(=O)N[C@@H](CC(C)C)c2ccccc2N2CCCCC2)ccc1C(=O)O [REPAGLINIDE]", "value measured": 0.87}
{"molecule": "Oc1ccc2c3c1O[C@H]1[C@@H](O)CC[C@@]4(O)[C@@H](C2)N(CC2CCC2)CC[C@]314", "value measured": 3.7}
